biological target: H1R (Homo sapiens, UniProt P35367); experiment: cell-based; parameters: gene HRH1; full receptor, C-terminal NlucC tag (11 aa split-NanoLuc fragment); co-expressed with NlucN-mGsq (mini-Gs/q71) in HEK293T; species or system HEK293T; details: HEK-293T, read-out: Mini G Protein Recruitment / Emax [%]
Sequence (P35367 whole entry, the tested form may be a part): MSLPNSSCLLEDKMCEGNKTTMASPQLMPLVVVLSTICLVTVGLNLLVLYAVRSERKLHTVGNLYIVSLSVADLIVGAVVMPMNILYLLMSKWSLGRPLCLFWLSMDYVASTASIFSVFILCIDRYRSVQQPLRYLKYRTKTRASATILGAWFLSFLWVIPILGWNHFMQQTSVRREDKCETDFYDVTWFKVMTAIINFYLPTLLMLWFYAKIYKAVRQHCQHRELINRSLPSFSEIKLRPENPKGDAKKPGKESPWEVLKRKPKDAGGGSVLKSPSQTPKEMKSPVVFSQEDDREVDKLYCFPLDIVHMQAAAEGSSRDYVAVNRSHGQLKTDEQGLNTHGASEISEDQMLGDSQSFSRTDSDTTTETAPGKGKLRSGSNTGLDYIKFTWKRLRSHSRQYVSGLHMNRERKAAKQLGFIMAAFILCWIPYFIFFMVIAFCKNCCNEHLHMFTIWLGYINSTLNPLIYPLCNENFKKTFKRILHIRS
QUANTITY: Emax (%)
Provide the reading as a plain figure in %.

Some compounds with known Emax results, for comparison:
INSERT INTO assay_data (compound_structure, test_result) VALUES
  ('CCC(=O)NC(N)=NCCCc1cnc[nH]1', 29),
  ('c1ccc(C(CCc2nc(CCNCCc3c[nH]cn3)c[nH]2)c2ccccc2)cc1', 49),
  ('CNCCc1cnc[nH]1', 99),
  ('Cc1[nH]cnc1CCN', 44);

Moving on to the next compound.
[ask] Record NCCc1c[nH]c(CCC(c2ccccc2)c2ccccc2)n1 : what is its Emax with H1R (Homo sapiens, UniProt P35367)?
[reply] 33

---

Entries and their measured Emax follow.
biological target: H2R (Homo sapiens); construct: gene HRH2; full receptor, C-terminal NlucC tag (11 aa split-NanoLuc fragment); co-expressed with NlucN-mGs (mini-Gs393) in HEK293T; assay: cell-based; set-up: species or system HEK293T; details: HEK-293T; read-out: Mini G Protein Recruitment / Emax [%]
Sequence (P25021 whole entry, the tested form may be a part): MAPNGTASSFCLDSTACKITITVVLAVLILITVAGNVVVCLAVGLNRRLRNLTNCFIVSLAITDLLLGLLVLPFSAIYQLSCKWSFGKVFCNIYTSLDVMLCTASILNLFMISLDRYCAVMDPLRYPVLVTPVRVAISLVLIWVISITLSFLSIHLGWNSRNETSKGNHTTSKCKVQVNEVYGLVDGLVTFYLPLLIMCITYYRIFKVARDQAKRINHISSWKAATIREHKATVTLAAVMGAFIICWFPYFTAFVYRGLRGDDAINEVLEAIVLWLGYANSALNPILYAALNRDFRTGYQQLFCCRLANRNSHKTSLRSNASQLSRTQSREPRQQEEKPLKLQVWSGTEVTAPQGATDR
Give a bare numeral; the unit % is implied.

Field: example entries. Status: answers known.
INSERT INTO measurements (compound_structure, measurement_units, test_result) VALUES
  ('CNCCc1cnc[nH]1', '%', 93),
  ('Cc1nc(N)sc1CCN', '%', 105),
  ('Cc1[nH]cnc1CCN', '%', 93),
  ('Cc1[nH]cnc1CSCCNC(=N)NCCCc1c[nH]cn1', '%', 90),
  ('CCC(=O)NC(N)=NCCCc1cnc[nH]1', '%', 95);

[ask] # lookup: Emax of CN(C)CCCSC(=N)N
[reply] 94

---

target: H2R (Homo sapiens); construct: gene HRH2; full receptor, C-terminal NlucC tag (11 aa split-NanoLuc fragment); co-expressed with NlucN-mGs (mini-Gs393) in HEK293T; assay: cell-based; design: species or system HEK293T; conditions: HEK-293T; read-out: Mini G Protein Recruitment / Emax [%]
QUANTITY: Emax (%)
Just the number please, in %, no unit attached.

INSERT INTO measurements (compound_structure, quantity, test_result) VALUES
  ('NCCc1c[nH]cn1', 'Emax', 100);

[ask] For the compound shown here, NC(N)=Nc1nc(CSCCC(N)=NS(N)(=O)=O)cs1 , give the reported Emax.
[reply] -9

[ask] Bench note: what Emax did CNC(=C[N+](=O)[O-])NCCSCc1ccc(CN(C)C)o1 show?
[reply] -8

[ask] I am curious: what Emax value has been reported for CN=C(NC#N)NCCSCc1nc[nH]c1C ?
[reply] -8
